biological target: M2 (Homo sapiens, UniProt P08172); experiment: In vitro functional assay of muscarinic acetylcholine receptor activity, M2; type: cell-based; details: antagonist IC50 at M2; read-out: M2 IC50
Sequence (P08172 whole entry): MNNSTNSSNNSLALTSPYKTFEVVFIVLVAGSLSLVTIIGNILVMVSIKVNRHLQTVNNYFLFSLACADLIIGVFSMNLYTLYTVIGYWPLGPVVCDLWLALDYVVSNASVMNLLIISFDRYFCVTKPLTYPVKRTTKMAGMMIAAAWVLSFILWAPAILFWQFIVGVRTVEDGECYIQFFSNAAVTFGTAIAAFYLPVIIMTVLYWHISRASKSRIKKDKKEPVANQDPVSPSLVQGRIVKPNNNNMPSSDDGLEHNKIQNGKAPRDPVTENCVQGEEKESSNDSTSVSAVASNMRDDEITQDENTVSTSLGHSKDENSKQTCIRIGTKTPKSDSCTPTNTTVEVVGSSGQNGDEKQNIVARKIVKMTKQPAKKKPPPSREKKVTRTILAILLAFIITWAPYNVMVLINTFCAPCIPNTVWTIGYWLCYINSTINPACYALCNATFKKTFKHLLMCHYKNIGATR
pIC50: −log10 of the molar value.
REPORTED_PROPERTY: pIC50

>  <COMPOUND>
CC1CN(C(=O)CCS(=O)(=O)c2cccc3ncsc23)CC(C)N1c1ccc(C#N)cn1 (centres unmarked)

>  <pIC50>
5.00 to 6.00

$$$$
>  <COMPOUND>
O=C(CCOCc1cccc2ncccc12)N1C[C@H]2CC[C@@H](C1)N2c1ccc(F)cn1

>  <pIC50>
5.00 to 6.00

$$$$
>  <COMPOUND>
O=C(CCOCc1cccc2ncsc12)N1C[C@H]2CC[C@@H](C1)N2c1ccncc1F

>  <pIC50>
5.00 to 6.00

$$$$
>  <COMPOUND>
O=C(CCNCc1cccc2ncnn12)N1CC2CCC(C1)N2c1ccc(Br)cn1

>  <pIC50>
5.00 to 6.00

$$$$
>  <COMPOUND>
Cc1ncccc1N1CCN(C(=O)CCCc2cccc3ncccc23)[C@@H](C)C1

>  <pIC50>
< 5.00

$$$$
>  <COMPOUND>
N#Cc1ccc(N2C3CCC2CN(C(=O)CCOCc2cccn4ncnc24)C3)nc1

>  <pIC50>
5.00 to 6.00

$$$$
>  <COMPOUND>
O=C(CC1CN(c2cccc3ncccc23)C1)N1C[C@H]2CC[C@@H](C1)N2c1ccc(F)cn1

>  <pIC50>
5.00 to 6.00

$$$$

Please find the next compound below.
pIC50 reading for COc1cnccc1N1CCN(C(=O)CCCc2cccc3ncccc23)[C@@H](C)C1 : 6.00 to 7.00
